Origin of values: PubChem BioAssay (NCI)

System: HCT-15 colon
Assay remarks: NCI tumour cell line growth inhibition, 48 h; in the data active means GI50 below about 0.43 µM; inactive means the rest
Assign a class; possible classes are active, inactive

Take a look at these entries with their results.
# Compound, Group
records = [
    ("COC(=O)c1c2c(c(C)[n+]([O-])c1C)C(=O)C(NCc1ccc(F)c(F)c1)=CC2=O", "inactive"),
    ("CO[C@H]1CC[C@@]2(C)C(=CC[C@H]3[C@@H]4C[C@H](O)C[C@@]4(C)CC[C@@H]32)C1", "inactive"),
    ("CCC[CH2][Sn]([CH2]CCC)([S]C1=NCCS1)[S]C1=NCCS1", "active"),
    ("Cc1cccc(N=C2c3cc([N+](=O)[O-])ccc3-c3c2cc([N+](=O)[O-])cc3[N+](=O)[O-])c1", "inactive"),
    ("CC(C)=CCC/C(C)=C/CC/C(=C/COP(=O)(OCc1ccc([N+](=O)[O-])o1)N(C)CCCCCl)C(C)(C)C (stereo unspecified)", "inactive"),
]

Query: recorded result category for "O=C(Nc1ccc(Br)c(Cl)c1)c1cc(F)ccc1O" in this test
inactive

* * *

Tested on: UO-31 renal
Assay remarks: NCI tumour cell line growth inhibition, 48 h; in the data active means GI50 below about 0.43 µM; inactive means the rest
Assign a class; possible classes are 1 = active, -1 = inactive

Query: recorded result category for "CCOC(=O)c1c(Cl)c2c(n1Cc1cc(OC)cc(OC)c1)-c1oncc1CCC2" in this test
-1

Query: recorded result category for "Cc1ccc(NC(=O)c2ccnc(N3CCCC3)c2)cc1-c1ccc(C(=O)NCC2CC2)cc1" in this test
-1

Query: recorded result category for "CN1CCN(Cc2ccc(Nc3ncc(Cl)c(Nc4ccccc4S(=O)(=O)N(C)C)n3)cc2)CC1" in this test
1

Query: recorded result category for "COc1cc2c(cc1OC)[C@@]1(C)C(=O)c3cc4c(cc3[C@H]1N(C)C2=O)OCO4" in this test
-1

Query: recorded result category for "C/C(=C\c1c[nH]c2ccccc12)[N+](=O)[O-]" in this test
-1

* * *

Tested on: CAKI-1 renal
Assay remarks: NCI tumour cell line growth inhibition, 48 h
# TGI listing for each entry below

Field: example entries. Status: answers known.
# Compound, TGI
data = [
    ("C/C(=C/CNc1ncnc2c1ncn2CCC#N)CO", "> 100 µM"),
    ("COC(=O)/C(=C/CC(N=C(c1ccccc1)c1ccccc1)C(=O)OC)N=C(c1ccccc1)c1ccccc1 (stereo unspecified)", "> 100 µM"),
    ("COc1cc([C@H]2Oc3cc(O)c4c(=O)cc(-c5ccc(O)cc5)oc4c3O[C@@H]2CO)ccc1O", "44.9 µM"),
    ("Cc1cc2nc3c(C#N)c(-c4ccccc4)cc(Nc4ccc(F)cc4)n3c2cc1C", "> 100 µM"),
    ("Cc1ncc([N+](=O)[O-])n1CCNC(=O)CCn1ccnc1[N+](=O)[O-]", "> 100 µM"),
]

Next:
Hello, please tell me recorded TGI for this one: CC(C)=CCC/C(C)=C/CC/C(=C/COP(=O)(OCc1ccc([N+](=O)[O-])o1)N(C)CCCCCl)C(C)(C)C (stereo unspecified)
22 µM

* * *

System: DU-145 prostate
Assay remarks: NCI tumour cell line growth inhibition, 48 h
Outcome measure: TGI

# Compound, TGI
data = [
    ("Cc1ccnc2c1ccc1nc3ccccc3n12", "> 100 µM"),
    ("COC(=O)Nc1nc2ccc(Oc3ccc(NC(=O)Nc4cccc(Cl)c4)cc3)cc2[nH]1", "8.44 µM"),
    ("O=C1OC2(c3ccc(O)cc3Oc3cc(O)ccc32)c2c1c(-c1ccccc1)c(-c1ccccc1)c(-c1ccccc1)c2-c1ccccc1", "35.2 µM"),
    ("COc1ccc(F)cc1C(=O)c1cnc(NC2CCN(S(C)(=O)=O)CC2)nc1N", "24.5 µM"),
    ("O=C(/C=C/c1cccs1)c1ccc(C(=O)/C=C/c2cccs2)cc1", "> 100 µM"),
]

Answer with TGI of COC1/C=C\OC2(C)Oc3c(C)c(O)c4c(O)c(c(CN(C)C)c(O)c4c3C2=O)NC(=O)/C(C)=C\C=C/C(C)C(O)C(C)C(O)C(C)C(OC(C)=O)C1C (centres undefined) measured for DU-145 prostate.
> 100 µM

Answer with TGI of "CCOC(=O)/C(=C\NC(C)(C)C)c1nc2ccccc2o1" measured for DU-145 prostate.
> 100 µM

Answer with TGI of "CSc1ccc(-c2cc(-c3nc4ccccc4[nH]3)nc3[nH]c(-c4nc5ccccc5[nH]4)cc(=O)c23)cc1" measured for DU-145 prostate.
> 100 µM

Answer with TGI of O=C(O)c1cccc(CC(Br)C(=O)O)c1 (centres undefined) measured for DU-145 prostate.
> 100 µM

* * *

Test system: HL-60(TB) leukemia
Assay remarks: NCI tumour cell line growth inhibition, 48 h; in the data active = GI50 below about 0.43 µM; inactive = the rest
Assign a class; possible classes are active, inactive

# Compound, Group
rows = [
    ("Cn1cc(C2=C(c3c4n(c5ccccc35)CCC(CN)CC4)C(=O)NC2=O)c2ccccc21 (stereo unspecified)", "inactive"),
]

Query: recorded result category for CN(C)CC1CCn2c(c(C3=C(c4cn(C)c5ccccc45)C(=O)NC3=O)c3ccccc32)C1 (stereo unspecified) in this test
inactive

Query: recorded result category for "COc1cc(C(=O)n2nc(N3CCN(C)CC3)c3cc(N)ccc32)cc(OC)c1OC" in this test
inactive

Query: recorded result category for "NC(=O)Oc1cc(OC(N)=O)cc(N(CCCl)CCCl)c1" in this test
inactive

Query: recorded result category for "CCOn1cc(C2=C(c3c[nH]c4ccccc34)C(=O)NC2=O)c2ccccc21" in this test
active

Query: recorded result category for "COc1cccc2c1c1nc3cc(C)c(C)cc3nc1n2CCN(C)C" in this test
inactive

Query: recorded result category for "CCCC(=O)NNc1[nH]c(-c2ccc(OC)cc2)cc1C(=O)OCC" in this test
inactive

Query: recorded result category for "Clc1ccc(CO/N=C(\Cn2ccnc2)c2ccc(Cl)cc2Cl)c(Cl)c1" in this test
inactive

Query: recorded result category for "CO[C@H]1CC[C@@]2(C)C(=CC[C@H]3[C@@H]4C[C@H](O)C[C@@]4(C)CC[C@@H]32)C1" in this test
inactive

Query: recorded result category for "Cc1ccc2sc3c(NCCCNCCO)nc4ccccc4c3c(=O)c2c1" in this test
inactive

Query: recorded result category for "C=C[C@]1(C)C=C2C(=O)[C@@]3(O)OC(=O)[C@@]4(CCCC(C)(C)[C@H]34)[C@@]2(O)CC1" in this test
inactive

* * *

# TGI listing for each entry below
Test system: SNB-19 CNS
Assay remarks: NCI tumour cell line growth inhibition, 48 h

Field: example entries. Status: answers known.
# Compound, Assayed system, TGI
records = [
    ("O=C(O)CCSc1nnc(COc2ccc(Cl)cc2)n1-c1ccccc1", "SNB-19 CNS", "> 100 µM"),
    ("N#CC1=C(N)Nc2nc3ccccc3n2C1c1ccccc1 (stereo not given)", "SNB-19 CNS", "> 100 µM"),
    ("COC(=O)C(=O)C(C(=O)C(=O)Nc1cc([N+](=O)[O-])ccc1[N+](=O)[O-])c1nc2ccc(C(=O)c3ccccc3)cc2[nH]c1=O (stereo not given)", "SNB-19 CNS", "> 100 µM"),
    ("COc1cc(-c2nc3ccccc3s2)ccc1OCc1nc2n(n1)S(=O)(=O)c1ccccc1N2C", "SNB-19 CNS", "> 100 µM"),
    ("CN(CCC(=O)O)S(=O)(=O)c1ccccc1", "SNB-19 CNS", "> 100 µM"),
]

Hello, please tell me recorded TGI for this one: "COC(=O)c1nc2c3c(cccc3c1C(=O)OC)Nc1ccccc1-2"
> 100 µM

Hello, please tell me recorded TGI for this one: CN(C)CC1CCn2c(c(C3=C(c4cn(C)c5ccccc45)C(=O)NC3=O)c3ccccc32)C1 (stereo not given)
10.4 µM

Hello, please tell me recorded TGI for this one: "O=C1C=CC2(C=C1)CCN=c1c(O)c3c(c(O)c12)=NC=N3"
27.1 µM

Hello, please tell me recorded TGI for this one: Cc1ccc(S(=O)(=O)n2cnc(CC(NC(=O)C3CCC(=O)N3C(=O)OCc3ccccc3)C(=O)N3CCCC3C(=O)NN)c2)cc1 (stereo not given)
> 100 µM

Hello, please tell me recorded TGI for this one: CC1C(=O)N(C)C2(CO)C(=O)O[C@H](C)C12O (stereo not given in full)
> 100 µM

* * *

# TGI listing for each entry below
Tested on: ACHN renal
Assay remarks: NCI tumour cell line growth inhibition, 48 h

Field: example entries. Status: answers known.
# Compound, Outcome measure, Result
rows = [
    ("COC(=O)/C(C#N)=C(\\Nc1ccccc1)N1CCCCC1", "TGI", "> 100 µM"),
    ("O=C(O)CC1(C(=O)O)CCCCC1", "TGI", "> 100 µM"),
    ("COc1cnc2c(c1)C(=O)c1c-2n(CCCN2CCN(C)CC2)c(=O)c2cc(Cl)ccc12", "TGI", "14.3 µM"),
    ("COc1ccc(C(=O)N2CCN(c3ccc4[nH]c(=O)oc4c3)CC2)cc1", "TGI", "> 100 µM"),
    ("COC(=O)/C(=C/CC(N=C(c1ccccc1)c1ccccc1)C(=O)OC)N=C(c1ccccc1)c1ccccc1 (stereo unspecified)", "TGI", "> 100 µM"),
    ("O=C(NN1C(=O)c2ccccc2C1=O)c1ccccc1Nc1ccccc1C(=O)NN1C(=O)c2ccccc2C1=O", "TGI", "> 100 µM"),
    ("COc1cc(/C=N/NC2=NCCCN2)ccc1O", "TGI", "> 100 µM"),
    ("CCn1c(SCC(=O)NNC(=S)Nc2ccc(F)cc2)nc2ccccc2c1=O", "TGI", "> 100 µM"),
    ("COc1ccc(N2C(=O)/C(=C\\c3cc(OC)c(OC)c(OC)c3)S(=O)(=O)C2c2ccccc2)cc1 (stereo unspecified)", "TGI", "> 100 µM"),
    ("CSC(=S)NNC(=O)c1ccncc1", "TGI", "36.2 µM"),
]

Hello, please tell me recorded TGI for this one: O=C(O)CCC1CCC(c2cc(F)ccc2F)(S(=O)(=O)c2ccc(Cl)cc2)CC1 (stereo unspecified)
> 100 µM

Hello, please tell me recorded TGI for this one: "O=C(C=Nc1ccccc1C(=O)[O-])c1cccs1.O=C(C=Nc1ccccc1C(=O)[O-])c1cccs1.[Cu+2]"
> 100 µM

Hello, please tell me recorded TGI for this one: "CCCC(=O)NNc1[nH]c(-c2ccc(OC)cc2)cc1C(=O)OCC"
22.9 µM
